System: IL-2 secretion by human effector memory T cells (TEM)
Measurement notes: Effector memory T cells IL-2 release assay
Assay type: cell-based
Condition: T-cell; human CD4+ effector memory T cells, CD3/CD28 bead stimulation, 24 h; read-out: CD4TC IL2 IC50
Flag rule - IC50 less than 200 nM flags satisfied; the remaining entries get not satisfied.

| Compound | Tested system | Class label |
| --- | --- | --- |
| CN(C(=O)[C@@H]1CCC(=O)N1)[C@@H](c1ccc(N2CCCc3c2cnc2cc(Cl)nn32)cc1)C(F)(F)F (relative stereo) | IL-2 secretion by human effector memory T cells (TEM) | not satisfied |
| COc1ccc2ncc(Nc3ccc([C@H](N(C)C(=O)C4CCN(C(C)=O)CC4)C(F)(F)F)cc3)c([C@H](C)OC)c2n1 (relative stereo) | IL-2 secretion by human effector memory T cells (TEM) | satisfied |
| COC[C@]1(C)CCN(c2ccc([C@H](N(C)C(=O)[C@H]3CC[S@+]([O-])CC3)C(F)(F)F)cc2)c2cnc3cc(Cl)nn3c21 (relative stereo) | IL-2 secretion by human effector memory T cells (TEM) | satisfied |
| CN(C(=O)[C@H]1CCCS(=O)(=O)N1)[C@@H](c1ccc(N2CCCc3c2cnc2cc(Cl)nn32)cc1)C(F)(F)F (relative stereo) | IL-2 secretion by human effector memory T cells (TEM) | satisfied |
| C[C@H]1CCN(c2ccc([C@H](N(C)C(=O)[C@H]3CC[S@](=N)(=O)CC3)C(F)(F)F)cc2)c2cnc3cc(Cl)nn3c21 (relative stereo) | IL-2 secretion by human effector memory T cells (TEM) | satisfied |

###

Tested system: Recombinant human MALT-1 (amino acids 340-824) (Homo sapiens (Human), UniProt Q9UDY8)
Sequence (Q9UDY8 340-824): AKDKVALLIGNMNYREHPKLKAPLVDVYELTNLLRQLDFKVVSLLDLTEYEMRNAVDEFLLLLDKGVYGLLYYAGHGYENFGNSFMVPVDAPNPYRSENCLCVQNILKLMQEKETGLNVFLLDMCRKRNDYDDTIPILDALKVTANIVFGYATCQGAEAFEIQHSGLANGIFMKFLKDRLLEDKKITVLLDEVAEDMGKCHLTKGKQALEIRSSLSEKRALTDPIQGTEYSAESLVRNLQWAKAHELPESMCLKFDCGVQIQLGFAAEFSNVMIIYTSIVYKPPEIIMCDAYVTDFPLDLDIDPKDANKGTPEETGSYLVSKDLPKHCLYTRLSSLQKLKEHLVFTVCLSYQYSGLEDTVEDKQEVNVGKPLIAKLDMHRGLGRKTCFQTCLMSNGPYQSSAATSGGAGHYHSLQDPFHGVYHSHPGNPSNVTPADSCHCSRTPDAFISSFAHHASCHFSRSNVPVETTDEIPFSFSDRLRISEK
Measurement notes: MALT-1 inhibition assay (fluorogenic substrate Ac-LRSR-Rh110-DP)
Condition: recombinant human MALT-1, substrate Ac-LRSR-Rh110-DP
pIC50: −log10 of the molar value.

| Compound | Tested system | pIC50 |
| --- | --- | --- |
| CN(C(=O)[C@@H]1CC(=O)N1)[C@@H](c1ccc(N2CCCc3c2cnc2cc(Cl)nn32)cc1)C(F)(F)F | Recombinant human MALT-1 (amino acids 340-824) (Homo sapiens (Human), UniProt Q9UDY8) | 7.20 |
| COCC(=O)N1CC[C@H](C(=O)N(C)[C@@H](c2ccc(N3CCCc4c3cnc3cc(Cl)nn43)cc2)C(F)(F)F)C1 (relative stereo) | Recombinant human MALT-1 (amino acids 340-824) (Homo sapiens (Human), UniProt Q9UDY8) | 7.02 |
| COc1ccc2ncc(Nc3ccc([C@@H](N(C)C(=O)[C@H]4CC[S@](=N)(=O)CC4)C(F)(F)F)cc3)c([C@@H](C)OC)c2n1 (stereo in doubt) | Recombinant human MALT-1 (amino acids 340-824) (Homo sapiens (Human), UniProt Q9UDY8) | 6.56 |
| CN(C(=O)C1CCOCC1)[C@@H](c1ccc(N2CCCc3c2cnc2cc(Cl)nn32)cc1)C(F)(F)F | Recombinant human MALT-1 (amino acids 340-824) (Homo sapiens (Human), UniProt Q9UDY8) | 6.91 |
| Cc1ncc(C(=O)N(C)[C@@H](c2ccc(N3CCCc4c3cnc3cc(Cl)nn43)cc2)C(F)(F)F)n1C | Recombinant human MALT-1 (amino acids 340-824) (Homo sapiens (Human), UniProt Q9UDY8) | 6.27 |
| COCC1CCN(c2ccc([C@H](N(C)C(=O)C3CCS(=O)(=O)CC3)C(F)(F)F)cc2)c2cnc3cc(Cl)nn3c21 (stereo partly shown) | Recombinant human MALT-1 (amino acids 340-824) (Homo sapiens (Human), UniProt Q9UDY8) | 7.03 |
| CC(=O)N1CCC(C(=O)N(C)[C@@H](c2ccc(N3CCCc4c3cnc3cc(Cl)nn43)nc2)C(F)(F)F)CC1 | Recombinant human MALT-1 (amino acids 340-824) (Homo sapiens (Human), UniProt Q9UDY8) | 6.81 |
| COC[C@]1(C)CCN(c2ccc([C@H](N(C)C(=O)[C@H]3CC[S@+]([O-])CC3)C(F)(F)F)cc2)c2cnc3cc(Cl)nn3c21 (relative stereo) | Recombinant human MALT-1 (amino acids 340-824) (Homo sapiens (Human), UniProt Q9UDY8) | 6.86 |
| Cc1nn(C)cc1C(=O)N(C)[C@@H](c1ccc(N2CCCc3c2cnc2cc(Cl)nn32)cc1)C(F)(F)F | Recombinant human MALT-1 (amino acids 340-824) (Homo sapiens (Human), UniProt Q9UDY8) | 6.61 |
| CN(C(=O)C1CCCCO1)[C@@H](c1ccc(N2CCCc3c2cnc2cc(Cl)nn32)cc1)C(F)(F)F (stereo partly shown) | Recombinant human MALT-1 (amino acids 340-824) (Homo sapiens (Human), UniProt Q9UDY8) | 6.68 |
| CN(C(=O)[C@H]1C[C@@H]([S@+](C)(=N)[O-])C1)[C@@H](c1ccc(N2CCCc3c2cnc2cc(Cl)nn32)cc1)C(F)(F)F | Recombinant human MALT-1 (amino acids 340-824) (Homo sapiens (Human), UniProt Q9UDY8) | 7.25 |
| CN(C(=O)[C@H]1C[C@H](S(C)(=O)=O)C1)[C@@H](c1ccc(N2CCCc3c2cnc2cc(Cl)nn32)cc1)C(F)(F)F | Recombinant human MALT-1 (amino acids 340-824) (Homo sapiens (Human), UniProt Q9UDY8) | 7.18 |
| CN(C(=O)C12CN(C1)S(=O)(=O)C2)[C@@H](c1ccc(N2CCCc3c2cnc2cc(Cl)nn32)cc1)C(F)(F)F | Recombinant human MALT-1 (amino acids 340-824) (Homo sapiens (Human), UniProt Q9UDY8) | 7.11 |

###

Tested system: Recombinant human MALT-1 (amino acids 340-824) (Homo sapiens (Human), UniProt Q9UDY8)
Measurement notes: MALT-1 inhibition assay (fluorogenic substrate Ac-LRSR-Rh110-DP)
Condition: recombinant human MALT-1, substrate Ac-LRSR-Rh110-DP
pIC50: −log10 of the molar value.

| Molecule | pIC50 |
| --- | --- |
| CN1C[C@H](C(=O)N(C)[C@@H](c2ccc(N3CCCc4c3cnc3cc(Cl)nn43)cc2)C(F)(F)F)CC1=O (relative stereo) | 7.10 |
| CN(C(=O)[C@H]1CC[S@@](=N)(=O)CC1)[C@@H](c1ccc(N2CCC(C)(C)c3c2cnc2cc(F)nn32)cc1)C(F)(F)F (relative stereo) | 7.28 |
| CN(C(=O)C1CCS(=O)(=O)C1)[C@@H](c1ccc(N2CCCc3c2cnc2cc(Cl)nn32)cc1)C(F)(F)F (stereo partly shown) | 6.88 |
| COC(C)c1c(Nc2ccc([C@H](N(C)C(=O)C3CCS(=O)(=O)CC3)C(F)(F)F)cc2)cnn2cc(Cl)nc12 (stereo partly shown) | 7.33 |
| C[C@H]1CCN(c2ccc([C@H](N(C)C(=O)[C@@H]3CCC(=O)NC3)C(F)(F)F)cc2)c2cnc3cc(Cl)nn3c21 (relative stereo) | 7.51 |
| CN(C(=O)Cc1ccccc1O)[C@@H](c1ccc(N2CCCc3c2cnc2cc(Cl)nn32)cc1)C(F)(F)F | 7.15 |
| CC(=O)N1CCC(C(=O)N(C)[C@@H](c2ccc(N3CCCc4c3cnc3cc(Cl)nn43)cc2)C(F)(F)F)CC1 | 7.34 |
| CN(C(=O)C1CCSCC1)[C@@H](c1ccc(N2CCCc3c2cnc2cc(Cl)nn32)cc1)C(F)(F)F | 7.04 |
| COc1ccc2ncc(Nc3ccc([C@H](N(C)C(=O)[C@H]4CC[S@](=N)(=O)CC4)C(F)(F)F)cc3)c([C@@H](C)OC)c2n1 | 6.99 |
| CO[C@@H](C)c1c(Nc2ccc([C@H](N(C)C(=O)[C@H]3CC[S@](=N)(=O)CC3)C(F)(F)F)cc2)cnn2cc(Cl)nc12 (relative stereo) | 7.28 |
| Cc1ncsc1C(=O)N(C)[C@@H](c1ccc(N2CCCc3c2cnc2cc(Cl)nn32)cc1)C(F)(F)F | 6.56 |
| CN(C(=O)N1CCOCC1)[C@@H](c1ccc(N2CCCc3c2cnc2cc(Cl)nn32)cc1)C(F)(F)F | 6.77 |
| CN(C(=O)CC1CS(=O)(=O)C1)[C@@H](c1ccc(N2CCCc3c2cnc2cc(Cl)nn32)cc1)C(F)(F)F | 6.85 |
| CN(C(=O)c1nn(C)cc1Cl)[C@@H](c1ccc(N2CCCc3c2cnc2cc(Cl)nn32)cc1)C(F)(F)F | 6.71 |
| CN([C@@H](c1ccc(N2CCCc3c2cnc2cc(Cl)nn32)cc1)C(F)(F)F)S(C)(=O)=O | 6.43 |
| COc1ccc2ncc(Nc3ccc([C@H](N(C)C(=O)C4CCS(=O)(=O)CC4)C(F)(F)F)cc3)c([C@H](C)N)c2n1 (relative stereo) | 6.91 |
| CN(C(=O)[C@H]1CC[S@+]([O-])CC1)[C@@H](c1ccc(N2CCC3(CC3)c3c2cnc2cc(Cl)nn32)cc1)C(F)(F)F (relative stereo) | 7.24 |
| CN(C(=O)[C@H]1CC[S@@+]([O-])CC1)[C@@H](c1ccc(N2CCC3(CC3)c3c2cnc2cc(F)nn32)cc1)C(F)(F)F (relative stereo) | 7.31 |
| CN(C(=O)[C@@H]1CCC(=O)N1)[C@@H](c1ccc(N2CCCc3c2cnc2cc(Cl)nn32)cc1)C(F)(F)F (relative stereo) | 7.12 |
| CN(C(=O)[C@@H]1CNC(=O)O1)[C@@H](c1ccc(N2CCCc3c2cnc2cc(Cl)nn32)cc1)C(F)(F)F (single isomer, unassigned) | 6.71 |
| CN(C(=O)[C@H]1CC12CCS(=O)(=O)CC2)[C@@H](c1ccc(N2CCCc3c2cnc2cc(Cl)nn32)cc1)C(F)(F)F (relative stereo) | 6.76 |
| COC[C@]1(C)CCN(c2ccc([C@H](N(C)C(=O)[C@H]3CC[S@@](=N)(=O)CC3)C(F)(F)F)cc2)c2cnc3cc(Cl)nn3c21 (relative stereo) | 7.17 |
| CN(C(=O)CN1CCCS1(=O)=O)[C@@H](c1ccc(N2CCCc3c2cnc2cc(Cl)nn32)cc1)C(F)(F)F | 6.81 |
| CN(C(=O)[C@H]1CCN(S(C)(=O)=O)C1)[C@@H](c1ccc(N2CCCc3c2cnc2cc(Cl)nn32)cc1)C(F)(F)F (relative stereo) | 7.17 |
| COc1ccc2ncc(Nc3ccc([C@H](N(C)C(=O)C4CCS(=O)(=O)CC4)C(F)(F)F)cc3)c(C(=O)N3CCC3)c2n1 | 6.31 |
